system-tested: influenza A/WSN/1933 (H1N1) PB2 CBD (aa.318-486) (Influenza A virus, UniProt P03427)
Construct: influenza A/WSN/1933 (H1N1) PB2 CBD (aa.318-486); purchased
Sequence (P03427 318-486): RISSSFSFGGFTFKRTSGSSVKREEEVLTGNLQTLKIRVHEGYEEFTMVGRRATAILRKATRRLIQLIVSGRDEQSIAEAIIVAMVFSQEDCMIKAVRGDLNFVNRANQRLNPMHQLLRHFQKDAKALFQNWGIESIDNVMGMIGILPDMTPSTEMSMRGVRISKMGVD
experimental-protocol: SPR competitive binding assay (Biacore T200)
experimental-setup: 20 to 0.156 µM, affinity binding model; read-out: SPR KD
quantity-measured: Kd (nM)
Report the value in nM with no unit label.

Identify the reported Kd for the following entry. O=C(O)[C@H]1C2CCC(CC2)[C@@H]1Nc1nc(-c2c[nH]c3ncc(F)cc23)ncc1F [VX-787, pimodivir, reference compound]
152

----------
Would you kindly list half-life for each of these molecules?
experimental-protocol: in vitro
experimental-setup: rat, microsomes, pH 7.4, Microsome T1/2, Rat, rat liver microsomes, 1 μM

Identify the reported half-life for the following entry. O=C(O)[C@H]1C2CCC(CC2)[C@@H]1Nc1nc(-c2c[nH]c3ncc(F)cc23)ncc1F [VX-787, pimodivir, reference compound]
249 min

Identify the reported half-life for the following entry. N=c1[nH]c2ncc(F)cc2n1-c1ncc(F)c(NC2C3CCC(CC3)C2C(=O)O)n1 (stereo not drawn)
> 800 min

Identify the reported half-life for the following entry. O=C(O)C1C2CCC(CC2)C1Nc1nc(-n2c(=O)[nH]c3ncc(F)cc32)ncc1F (stereo not drawn)
> 800 min

----------
Would you kindly list half-life at 1 μM for each of these compounds?
system-tested: T1, aldehyde oxidase (AO) (Homo sapiens, UniProt Q06278)
T1 construct: Human liver cytosolic protein was incubated with VX-787, comp; I, and comp; II; from tissue; host or cells: pooled human liver (hepatocyte) cytosol
T1 sequence (Q06278 whole entry): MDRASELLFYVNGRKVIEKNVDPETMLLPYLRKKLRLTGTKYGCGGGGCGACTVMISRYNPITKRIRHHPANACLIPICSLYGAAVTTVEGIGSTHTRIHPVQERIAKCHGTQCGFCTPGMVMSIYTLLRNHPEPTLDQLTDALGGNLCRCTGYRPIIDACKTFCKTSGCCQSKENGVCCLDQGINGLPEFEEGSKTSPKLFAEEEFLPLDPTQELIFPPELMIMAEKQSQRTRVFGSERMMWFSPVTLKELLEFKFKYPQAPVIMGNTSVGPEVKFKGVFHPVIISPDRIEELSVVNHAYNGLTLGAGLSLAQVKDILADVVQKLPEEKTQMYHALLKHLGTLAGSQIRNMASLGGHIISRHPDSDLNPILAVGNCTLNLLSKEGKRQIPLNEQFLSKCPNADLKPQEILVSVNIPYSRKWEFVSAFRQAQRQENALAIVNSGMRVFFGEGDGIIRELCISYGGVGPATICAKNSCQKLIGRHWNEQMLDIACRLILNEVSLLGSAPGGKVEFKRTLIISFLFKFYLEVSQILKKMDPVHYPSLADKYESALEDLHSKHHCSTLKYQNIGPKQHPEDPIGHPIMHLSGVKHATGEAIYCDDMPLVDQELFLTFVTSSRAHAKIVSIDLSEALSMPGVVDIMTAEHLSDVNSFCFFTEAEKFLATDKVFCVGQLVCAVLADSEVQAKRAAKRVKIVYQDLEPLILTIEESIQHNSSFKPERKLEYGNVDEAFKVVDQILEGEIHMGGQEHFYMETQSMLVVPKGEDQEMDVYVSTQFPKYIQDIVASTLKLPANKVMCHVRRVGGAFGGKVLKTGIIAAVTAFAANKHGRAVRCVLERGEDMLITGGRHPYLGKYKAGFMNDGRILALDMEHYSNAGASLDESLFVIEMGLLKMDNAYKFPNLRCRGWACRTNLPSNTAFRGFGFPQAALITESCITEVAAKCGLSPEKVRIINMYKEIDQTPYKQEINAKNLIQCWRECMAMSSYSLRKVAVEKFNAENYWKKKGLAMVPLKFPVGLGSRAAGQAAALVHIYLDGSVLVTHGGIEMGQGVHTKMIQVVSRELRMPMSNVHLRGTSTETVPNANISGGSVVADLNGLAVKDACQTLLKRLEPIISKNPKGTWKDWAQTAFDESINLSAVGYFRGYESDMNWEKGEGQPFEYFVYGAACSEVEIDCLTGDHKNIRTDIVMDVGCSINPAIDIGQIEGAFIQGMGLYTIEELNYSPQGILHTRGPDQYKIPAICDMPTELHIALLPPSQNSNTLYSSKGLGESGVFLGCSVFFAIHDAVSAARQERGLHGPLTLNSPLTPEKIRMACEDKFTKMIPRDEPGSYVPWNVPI
experimental-protocol: AO-mediated metabolic stability in human liver cytosol with/without raloxifene
Assay type: in vitro ADME
experimental-setup: pooled liver (hepatocyte) cytosol, pH 7.4; human liver cytoplasm; read-out: Cytoplasm T1/2, Human

Identify the reported half-life at 1 μM for the following entry. O=C(O)C1C2CCC(CC2)C1Nc1nc(-n2c(=O)[nH]c3ncc(F)cc32)ncc1F (stereo not drawn)
> 13.3 h

Identify the reported half-life at 1 μM for the following entry. O=C(O)[C@H]1C2CCC(CC2)[C@@H]1Nc1nc(-c2c[nH]c3ncc(F)cc23)ncc1F [VX-787, pimodivir, reference compound]
2.5 h

Identify the reported half-life at 1 μM for the following entry. N=c1[nH]c2ncc(F)cc2n1-c1ncc(F)c(NC2C3CCC(CC3)C2C(=O)O)n1 (stereo not drawn)
> 13.3 h

----------
experimental-protocol: in vitro
experimental-setup: human, microsomes, pH 7.4, Microsome T1/2, Human, human liver microsomes, 1 μM
quantity-measured: half-life

Identify the reported half-life for the following entry. N=c1[nH]c2ncc(F)cc2n1-c1ncc(F)c(NC2C3CCC(CC3)C2C(=O)O)n1 (stereo not drawn) [comp. II]
> 13.3 h

Identify the reported half-life for the following entry. O=C(O)[C@H]1C2CCC(CC2)[C@@H]1Nc1nc(-c2c[nH]c3ncc(F)cc23)ncc1F [VX-787, pimodivir, reference compound]
5.82 h

Identify the reported half-life for the following entry. O=C(O)C1C2CCC(CC2)C1Nc1nc(-n2c(=O)[nH]c3ncc(F)cc32)ncc1F (stereo not drawn) [comp. I]
> 13.3 h

----------
system-tested: influenza A/WSN/1933 (H1N1) PB2 CBD (aa.318-486) (Influenza A virus)
Construct: influenza A/WSN/1933 (H1N1) PB2 CBD (aa.318-486); purchased
experimental-protocol: SPR competitive binding assay (Biacore T200)
quantity-measured: pKd
The value called pKd is obtained by taking minus log10 of the concentration in mol/L.

Identify the reported pKd for the following entry. N=c1[nH]c2ncc(F)cc2n1-c1ncc(F)c(NC2C3CCC(CC3)C2C(=O)O)n1 (centres unmarked)
5.78

Identify the reported pKd for the following entry. O=C(O)C1C2CCC(CC2)C1Nc1nc(-n2c(=O)[nH]c3ncc(F)cc32)ncc1F (centres unmarked)
5.85
